Biological target: Cytochrome P450 2C9 (Homo sapiens)
Sequence (P11712 whole entry): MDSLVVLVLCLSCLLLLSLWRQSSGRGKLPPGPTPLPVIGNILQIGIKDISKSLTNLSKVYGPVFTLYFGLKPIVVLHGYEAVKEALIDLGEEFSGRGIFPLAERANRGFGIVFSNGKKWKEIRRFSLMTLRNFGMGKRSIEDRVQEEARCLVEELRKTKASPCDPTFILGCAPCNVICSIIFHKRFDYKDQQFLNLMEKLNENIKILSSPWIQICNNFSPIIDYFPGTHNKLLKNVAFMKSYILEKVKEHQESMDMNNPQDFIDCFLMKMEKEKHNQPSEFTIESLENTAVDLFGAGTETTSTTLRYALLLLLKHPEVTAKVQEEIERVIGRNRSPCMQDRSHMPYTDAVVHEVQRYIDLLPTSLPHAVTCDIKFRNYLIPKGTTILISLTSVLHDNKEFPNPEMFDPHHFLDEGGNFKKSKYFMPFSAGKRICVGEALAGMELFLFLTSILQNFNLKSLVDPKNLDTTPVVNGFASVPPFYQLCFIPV
pIC50: −log10 of the molar value.
measured.quantity: pIC50

Below, each entry is followed by its recorded pIC50 result.
In plain terms, N=C(N)NC(=O)c1ccc(C2CCN(C(=O)c3cccnc3)CC2)c(C(F)(F)F)c1 has a documented pIC50 of 4.89

In plain terms, N=C(N)NC(=O)c1ccc(C2CCN(C(=O)c3ccccn3)CC2)c(C(F)(F)F)c1 has a documented pIC50 of 5.52

In plain terms, N=C(N)NC(=O)c1ccc(C2CCN(C(=O)c3ccc(C(N)=O)cc3)CC2)c(C(F)(F)F)c1 has a documented pIC50 of 5.40

In plain terms, Cn1ccnc1C(=O)N1CCC(c2ccc(C(=O)NC(=N)N)cc2C(F)(F)F)CC1 has a documented pIC50 of 4.74

In plain terms, N=C(N)NC(=O)c1ccc(C2CCN(C(=O)c3ccc(F)cc3)CC2)c(C(F)(F)F)c1 has a documented pIC50 of 5.10

1. Cn1cncc1C(=O)N1CCC(c2ccc(C(=O)NC(=N)N)cc2C(F)(F)F)CC1
2. CC(C)C(=O)N1CCC(c2ccc(C(=O)NC(=N)N)cc2C(F)(F)F)CC1
QUERY: Hi there! Just curious which has the higher pIC50 between 1 and 2 . Give the chosen item's label as your response.
RESULT: 2
(2: 5.15, 1: 4.60)

----------
IC50 listing for selected compounds.
Target: Voltage-gated inwardly rectifying potassium channel KCNH2 (Homo sapiens, UniProt Q12809)
Sequence (Q12809 whole entry): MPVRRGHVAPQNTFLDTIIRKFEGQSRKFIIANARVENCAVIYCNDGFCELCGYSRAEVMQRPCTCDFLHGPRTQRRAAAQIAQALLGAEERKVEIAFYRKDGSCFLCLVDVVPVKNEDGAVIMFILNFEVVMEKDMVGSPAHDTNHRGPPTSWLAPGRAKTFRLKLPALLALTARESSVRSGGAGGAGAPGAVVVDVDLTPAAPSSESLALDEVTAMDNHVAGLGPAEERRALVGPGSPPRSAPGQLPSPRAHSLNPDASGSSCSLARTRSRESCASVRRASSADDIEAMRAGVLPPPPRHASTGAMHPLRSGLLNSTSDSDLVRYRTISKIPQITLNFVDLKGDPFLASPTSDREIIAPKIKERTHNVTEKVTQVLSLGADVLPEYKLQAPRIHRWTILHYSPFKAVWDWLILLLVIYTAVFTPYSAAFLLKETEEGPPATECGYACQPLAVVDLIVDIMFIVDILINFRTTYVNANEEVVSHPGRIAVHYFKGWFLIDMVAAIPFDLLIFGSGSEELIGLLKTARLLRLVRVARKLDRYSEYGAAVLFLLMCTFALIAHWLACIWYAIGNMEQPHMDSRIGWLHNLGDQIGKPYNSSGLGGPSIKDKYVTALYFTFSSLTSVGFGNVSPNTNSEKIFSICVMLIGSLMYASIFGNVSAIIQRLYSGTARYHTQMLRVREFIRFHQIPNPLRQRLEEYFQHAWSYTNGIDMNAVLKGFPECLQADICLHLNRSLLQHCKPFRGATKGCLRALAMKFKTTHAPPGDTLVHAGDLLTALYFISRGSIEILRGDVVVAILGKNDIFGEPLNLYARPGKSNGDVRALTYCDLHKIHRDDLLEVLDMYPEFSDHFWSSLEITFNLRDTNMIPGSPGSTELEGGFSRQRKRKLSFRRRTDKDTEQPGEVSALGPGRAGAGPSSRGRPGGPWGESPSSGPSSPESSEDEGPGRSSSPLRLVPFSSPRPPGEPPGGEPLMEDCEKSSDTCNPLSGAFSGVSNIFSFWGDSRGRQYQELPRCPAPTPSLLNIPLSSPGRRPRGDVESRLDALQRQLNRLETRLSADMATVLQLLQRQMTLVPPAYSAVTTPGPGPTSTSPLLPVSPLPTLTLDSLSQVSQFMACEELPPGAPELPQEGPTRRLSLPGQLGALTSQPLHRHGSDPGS
Assay: Inhibition of human ERG expressed in HEK 293 cells by PatchXpress assay
Type: cell-based, HEK293

Below, each entry is followed by its recorded IC50 result.
In plain terms, CC(=O)N1CCC(c2ccc(C(=O)NC(=N)N)cc2C(F)(F)F)CC1 has a documented IC50 of > 30 µM

In plain terms, N#Cc1ccc(C(=O)N2CCC(c3ccc(C(=O)NC(=N)N)cc3C(F)(F)F)CC2)cc1 has a documented IC50 of 4 µM

In plain terms, N#Cc1cccc(C(=O)N2CCC(c3ccc(C(=O)NC(=N)N)cc3C(F)(F)F)CC2)c1 has a documented IC50 of > 30 µM

In plain terms, COCC(=O)N1CCC(c2ccc(C(=O)NC(=N)N)cc2C(F)(F)F)CC1 has a documented IC50 of > 30 µM

In plain terms, CC(=O)N1CCC(c2cc(C)c(C(=O)NC(=N)N)cc2C(F)(F)F)CC1 has a documented IC50 of 7 µM

Next:
In plain terms, Cn1ccnc1C(=O)N1CCC(c2ccc(C(=O)NC(=N)N)cc2C(F)(F)F)CC1 has a documented IC50 of > 30 µM

----------
System: Rattus norvegicus
Experiment: Clearance in jugular and femoral vein precannulated Sprague-Dawley rat at 1 mg/kg, iv by LC/MS/MS analysis relative to hepatic blood flow
Type: ADME, organism-based, Liver
Design: dose 1 mg/kg, route intravenous
Conditions: in vivo
measured.quantity: CL (%)

In plain terms, CS(=O)(=O)c1ccc(C(=O)N2CCC(c3ccc(C(=O)NC(=N)N)cc3C(F)(F)F)CC2)cc1 has a documented CL of 66

a. N=C(N)NC(=O)c1ccc(N2CCN(C(=O)c3ccc[nH]3)CC2)c(C(F)(F)F)c1 [SABIPORIDE]
b. CC(=O)N1CCC(c2ccc(C(=O)NC(=N)N)cc2C(F)(F)F)CC1 [BI 9627]
QUERY: Hi there! Just curious which has the higher CL between a and b . Give the chosen item's label as your response.
RESULT: a
(a: 24%, b: 5.7%)

----------
Test: Volume of distribution at steady state in overnight fasted Beagle dog at 1 mg/kg, iv
Assay type: ADME, organism-based, Canis lupus familiaris
Set-up: dose 1 mg/kg, route intravenous
Details: in vivo, read-out: Vdss
measured.quantity: Vd (L/kg)

A. CC(=O)N1CCC(c2ccc(C(=O)NC(=N)N)cc2C(F)(F)F)CC1
B. CCC(=O)N1CCC(c2ccc(C(=O)NC(=N)N)cc2C(F)(F)F)CC1
QUERY: // returns A or B , whichever has the lower Vd Give the chosen item's label as your response.
RESULT: A
(A: 1.4 L/kg, B: 2 L/kg)

----------
Assay: Permeability of the compound by PAMPA
Assay type: ADME
Conditions: read-out: permeability
measured.quantity: Papp

Below, each entry is followed by its recorded Papp result.
In plain terms, CC(=O)N1CCC(c2ccc(C(=O)NC(=N)N)cc2C(F)(F)F)CC1 has a documented Papp of ≥ 2 ×10⁻⁶ cm/s

In plain terms, CS(=O)(=O)c1ccc(C(=O)N2CCC(c3ccc(C(=O)NC(=N)N)cc3C(F)(F)F)CC2)cc1 has a documented Papp of < 2 ×10⁻⁶ cm/s

In plain terms, N=C(N)NC(=O)c1ccc(C2CCN(C(=O)c3ccncc3)CC2)c(C(F)(F)F)c1 has a documented Papp of ≥ 2 ×10⁻⁶ cm/s

Next:
In plain terms, N=C(N)NC(=O)c1ccc(C2CCN(C(=O)c3ccccc3)CC2)c(C(F)(F)F)c1 has a documented Papp of ≥ 2 ×10⁻⁶ cm/s

In plain terms, N#Cc1cccc(C(=O)N2CCC(c3ccc(C(=O)NC(=N)N)cc3C(F)(F)F)CC2)c1 has a documented Papp of ≥ 2 ×10⁻⁶ cm/s

----------
Target: Sodium/hydrogen exchanger 1 (Homo sapiens)
Sequence (P19634 whole entry): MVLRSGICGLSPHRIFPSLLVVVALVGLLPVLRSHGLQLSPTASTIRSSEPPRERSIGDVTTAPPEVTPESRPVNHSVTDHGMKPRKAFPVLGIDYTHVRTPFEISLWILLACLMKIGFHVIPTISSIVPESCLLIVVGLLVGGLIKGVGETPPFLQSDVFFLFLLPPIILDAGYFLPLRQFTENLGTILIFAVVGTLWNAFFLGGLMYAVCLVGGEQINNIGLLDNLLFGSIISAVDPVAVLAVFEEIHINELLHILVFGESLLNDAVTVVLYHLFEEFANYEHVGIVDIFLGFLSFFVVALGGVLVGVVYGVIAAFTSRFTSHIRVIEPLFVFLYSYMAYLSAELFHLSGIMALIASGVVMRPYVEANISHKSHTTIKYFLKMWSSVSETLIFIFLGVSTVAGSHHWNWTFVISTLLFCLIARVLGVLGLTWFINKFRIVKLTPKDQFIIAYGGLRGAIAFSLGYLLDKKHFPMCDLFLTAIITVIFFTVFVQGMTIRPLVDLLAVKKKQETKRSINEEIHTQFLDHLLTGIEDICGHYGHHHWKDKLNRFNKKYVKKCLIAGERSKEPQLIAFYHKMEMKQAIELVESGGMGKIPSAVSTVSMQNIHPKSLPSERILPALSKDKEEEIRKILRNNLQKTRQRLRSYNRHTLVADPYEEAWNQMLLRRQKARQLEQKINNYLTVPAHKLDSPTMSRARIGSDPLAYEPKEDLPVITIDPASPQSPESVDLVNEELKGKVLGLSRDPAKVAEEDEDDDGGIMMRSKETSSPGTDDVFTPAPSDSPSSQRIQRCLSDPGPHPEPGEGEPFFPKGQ
Assay: Inhibition of NHE1 in human HT-29 cells assessed as intracellular pH change after 30 mins
measured.quantity: IC50 (nM)

Below, each entry is followed by its recorded IC50 result.
In plain terms, CC(=O)N1CCC(c2ccc(C(=O)NC(=N)N)cc2S(C)(=O)=O)CC1 has a documented IC50 of 22

In plain terms, N=C(N)NC(=O)c1ccc(C2CCN(C(=O)c3cccnc3)CC2)c(C(F)(F)F)c1 has a documented IC50 of 18

I. CCC(=O)N1CCC(c2ccc(C(=O)NC(=N)N)cc2S(C)(=O)=O)CC1
II. Cn1ccnc1C(=O)N1CCC(c2ccc(C(=O)NC(=N)N)cc2C(F)(F)F)CC1
III. N=C(N)NC(=O)c1ccc(C2CCN(C(=O)c3cccc(Cl)c3)CC2)c(C(F)(F)F)c1
QUERY: Task field, ranking: reported IC50, descending order. Would you mind listing the labels in the order asked for?
RESULT: III, I, II
(III: 385 nM, I: 29 nM, II: 14 nM)

----------
Assay: Volume of distribution at steady state in jugular and femoral vein precannulated Sprague-Dawley rat at 1 mg/kg, iv by LC/MS/MS analysis
Assay type: ADME, organism-based
Set-up: dose 1 mg/kg, route intravenous
Details: in vivo, read-out: Vdss
measured.quantity: Vd (L/kg)

In plain terms, CCC(=O)N1CCC(c2ccc(C(=O)NC(=N)N)cc2C(F)(F)F)CC1 has a documented Vd of 1

P. N=C(N)NC(=O)c1cnn(-c2cccc3ncccc23)c1C1CC1 [ZONIPORIDE]
Q. CC(C)c1ccc(C(=O)NC(=N)N)cc1S(C)(=O)=O [CARIPORIDE]
QUERY: // returns P or Q , whichever has the lower Vd Give the chosen item's label as your response.
RESULT: Q
(Q: 1.3 L/kg, P: 2.8 L/kg)

a. CC(=O)N1CCC(c2cc(C)c(C(=O)NC(=N)N)cc2S(C)(=O)=O)CC1
b. CC(C)(C)C(=O)N1CCC(c2ccc(C(=O)NC(=N)N)cc2C(F)(F)F)CC1
QUERY: // returns a or b , whichever has the lower Vd Give the chosen item's label as your response.
RESULT: a
(a: 1 L/kg, b: 1.8 L/kg)

P. CC(=O)N1CCC(c2ccc(C(=O)NC(=N)N)cc2C(F)(F)F)CC1 [BI 9627]
Q. N#Cc1cccc(C(=O)N2CCC(c3ccc(C(=O)NC(=N)N)cc3C(F)(F)F)CC2)c1
R. Cc1cc(-n2cccc2)c(S(C)(=O)=O)cc1C(=O)NC(=N)N [ENIPORIDE]
QUERY: Task field, ranking: reported Vd, descending order. Would you mind listing the labels in the order asked for?
RESULT: Q, P, R

----------
Experiment: Metabolic stability in human liver microsomes at 1 uM up to 60 mins by LC/MS/MS analysis relative to hepatic blood flow
Type: ADME, Microsome
Settings: read-out: Stability
measured.quantity: hepatic extraction ratio at 1 h, 1 µM

I. COCC(=O)N1CCC(c2ccc(C(=O)NC(=N)N)cc2C(F)(F)F)CC1
II. N=C(N)NC(=O)c1ccc(C2CCN(C(=O)c3ccc(F)cc3)CC2)c(C(F)(F)F)c1
III. CS(=O)(=O)c1cccc(C(=O)N2CCC(c3ccc(C(=O)NC(=N)N)cc3C(F)(F)F)CC2)c1
QUERY: Returns the items ordered by hepatic extraction ratio at 1 h, 1 µM, from maximum to minimum. Would you mind listing the labels in the order asked for?
RESULT: II, III, I
(II: 0.32, III: 0.15, I: 0.06)

----------
Tested on: Rattus norvegicus
Assay: Clearance in jugular and femoral vein precannulated Sprague-Dawley rat at 1 mg/kg, iv by LC/MS/MS analysis relative to hepatic blood flow
Type: ADME, organism-based, Liver
Design: dose 1 mg/kg, route intravenous
Settings: in vivo
measured.quantity: CL (%)

Below, each entry is followed by its recorded CL result.
In plain terms, Cc1cc(-n2cccc2)c(S(C)(=O)=O)cc1C(=O)NC(=N)N [ENIPORIDE] has a documented CL of 28

In plain terms, CC(C)c1ccc(C(=O)NC(=N)N)cc1S(C)(=O)=O [CARIPORIDE] has a documented CL of 82

In plain terms, N#Cc1cccc(C(=O)N2CCC(c3ccc(C(=O)NC(=N)N)cc3C(F)(F)F)CC2)c1 has a documented CL of 16

P. COCC(=O)N1CCC(c2ccc(C(=O)NC(=N)N)cc2C(F)(F)F)CC1
Q. N=C(N)NC(=O)c1cnn(-c2cccc3ncccc23)c1C1CC1 [ZONIPORIDE]
QUERY: Hi there! Just curious which has the higher CL between P and Q . Give the chosen item's label as your response.
RESULT: Q
